molecular target: LFA-1 binding to immobilized ICAM-1 (Homo sapiens, UniProt P05107+P20701); construct: made in house; host or cells: transfected 293 cells (LFA-1); test: LFA-1/ICAM-1 protein-protein assay (solid-phase ELISA); details: read-out: LFA-1/ICAM-1 Protein-Protein Assay IC50
Sequence (P20701 26-1170): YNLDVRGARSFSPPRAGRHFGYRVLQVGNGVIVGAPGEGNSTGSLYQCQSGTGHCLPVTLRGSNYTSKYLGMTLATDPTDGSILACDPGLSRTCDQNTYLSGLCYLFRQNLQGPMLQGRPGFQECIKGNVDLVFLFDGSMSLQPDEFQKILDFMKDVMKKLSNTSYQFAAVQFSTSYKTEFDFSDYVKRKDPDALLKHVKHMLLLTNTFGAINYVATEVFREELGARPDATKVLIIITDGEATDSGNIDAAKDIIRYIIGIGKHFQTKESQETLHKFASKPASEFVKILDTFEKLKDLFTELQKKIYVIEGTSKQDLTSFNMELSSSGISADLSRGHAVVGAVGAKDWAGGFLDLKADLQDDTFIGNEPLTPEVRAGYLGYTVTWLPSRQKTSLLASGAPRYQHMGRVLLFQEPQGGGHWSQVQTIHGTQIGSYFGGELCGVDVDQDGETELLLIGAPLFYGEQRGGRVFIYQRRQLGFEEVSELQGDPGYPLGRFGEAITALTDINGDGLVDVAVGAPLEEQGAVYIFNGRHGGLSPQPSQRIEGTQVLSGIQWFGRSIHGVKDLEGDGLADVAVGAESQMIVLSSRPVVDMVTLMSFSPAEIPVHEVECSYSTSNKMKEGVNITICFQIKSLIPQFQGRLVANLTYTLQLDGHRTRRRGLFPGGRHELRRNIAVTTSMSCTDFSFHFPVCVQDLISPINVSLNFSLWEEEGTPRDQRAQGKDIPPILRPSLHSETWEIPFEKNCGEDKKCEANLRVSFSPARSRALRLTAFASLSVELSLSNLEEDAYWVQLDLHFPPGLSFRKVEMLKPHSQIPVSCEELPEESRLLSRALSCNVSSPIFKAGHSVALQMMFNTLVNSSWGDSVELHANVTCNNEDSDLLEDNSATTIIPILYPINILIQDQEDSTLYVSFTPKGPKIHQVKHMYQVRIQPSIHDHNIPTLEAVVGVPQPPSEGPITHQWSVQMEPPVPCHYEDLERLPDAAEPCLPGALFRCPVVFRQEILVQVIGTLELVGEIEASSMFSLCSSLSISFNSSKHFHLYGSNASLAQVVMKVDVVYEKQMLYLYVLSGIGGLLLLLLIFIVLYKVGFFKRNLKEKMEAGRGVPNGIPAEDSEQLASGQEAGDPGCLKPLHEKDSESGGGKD
Sequence (P05107 23-769): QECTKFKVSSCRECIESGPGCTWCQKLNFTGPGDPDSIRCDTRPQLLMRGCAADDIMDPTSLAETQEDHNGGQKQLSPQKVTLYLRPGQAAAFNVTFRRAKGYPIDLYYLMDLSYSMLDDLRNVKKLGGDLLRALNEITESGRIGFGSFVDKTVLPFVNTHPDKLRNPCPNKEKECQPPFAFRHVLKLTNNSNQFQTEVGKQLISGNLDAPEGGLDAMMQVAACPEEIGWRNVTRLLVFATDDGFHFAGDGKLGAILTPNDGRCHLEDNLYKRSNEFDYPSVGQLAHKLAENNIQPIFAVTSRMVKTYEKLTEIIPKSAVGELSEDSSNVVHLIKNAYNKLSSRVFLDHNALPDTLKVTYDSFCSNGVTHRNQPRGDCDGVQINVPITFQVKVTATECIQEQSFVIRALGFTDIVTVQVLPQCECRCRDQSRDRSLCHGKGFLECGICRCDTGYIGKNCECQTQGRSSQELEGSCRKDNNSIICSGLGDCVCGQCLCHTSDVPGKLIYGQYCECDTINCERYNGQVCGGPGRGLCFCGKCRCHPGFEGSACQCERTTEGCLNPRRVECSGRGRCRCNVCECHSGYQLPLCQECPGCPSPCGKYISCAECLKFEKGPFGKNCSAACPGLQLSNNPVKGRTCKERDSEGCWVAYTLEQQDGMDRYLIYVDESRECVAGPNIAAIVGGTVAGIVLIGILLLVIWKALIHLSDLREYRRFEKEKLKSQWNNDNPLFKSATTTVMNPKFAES
In this section we review reported pIC50 values for a set of compounds.
// pIC50 is dimensionless: -log10 of concentration (M)

// worked examples, pIC50 included
>>> observed("CC1(C(=O)NC[C@H](NC(=O)c2ccc(C(=O)NCc3cccc(O)c3)cc2Cl)C(=O)O)CCCCC1 [Example 105]")
8.72
>>> observed("C[C@@H](NC(=O)c1ccc(C(=O)N[C@@H](CNC(=O)c2cccs2)C(=O)O)c(Br)c1)c1cccc2ccccc12 [Example 332]")
8.32

Now for a further compound.
Reported pIC50 for O=C(NCc1cccc(O)c1)c1ccc(C(=O)N[C@@H](CNC(=O)C(c2ccccc2)c2ccccc2)C(=O)O)c(Cl)c1 [Example 86] was 8.48

Origin of the recorded values: patent US20040006236A1
